Each recorded value in this set is attributed to patent US8841290B2.

target: human MCH receptor (Homo sapiens, UniProt Q99705); construct: expressed in transfected cells; assay: calcium mobilization assay (FLIPR), functional IC50 of MCH1R antagonists; format: cell-based; conditions: recombinant HEK293 cell line expressing the human MCH receptor; calcium flux after addition of agonist (MCH); read-out: IC50
Sequence (Q99705 whole entry): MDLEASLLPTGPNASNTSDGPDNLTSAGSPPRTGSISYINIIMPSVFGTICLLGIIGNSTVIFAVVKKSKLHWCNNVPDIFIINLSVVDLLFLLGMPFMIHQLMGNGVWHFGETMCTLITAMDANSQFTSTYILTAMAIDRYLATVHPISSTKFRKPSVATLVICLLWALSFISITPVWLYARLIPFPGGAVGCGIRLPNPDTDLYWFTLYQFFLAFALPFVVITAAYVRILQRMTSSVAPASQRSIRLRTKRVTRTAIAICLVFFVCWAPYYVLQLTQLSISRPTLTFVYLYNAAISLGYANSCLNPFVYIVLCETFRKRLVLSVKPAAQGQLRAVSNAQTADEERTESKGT
attribute.measured: IC50 (nM)

CCC(COC)NCc1ccc2c(c1)CC[C@H](N(C)C(=O)c1ccc(OCC3CC3)cc1)C2 (stereo partly shown)    563

1: COCCCNCc1ccc2c(c1)CC[C@H](N(C)C(=O)c1ccc(OCC3CC3)cc1)C2
2: CC(C)CCNCc1ccc2c(c1)CC[C@H](N(C)C(=O)c1ccc(OCC3CC3)cc1)C2
Which value of IC50 is greater, the one for 1 or the one for 2 ? State the label of the item chosen. 2

P: COCC(C)(C)CNCc1ccc2c(c1)CC[C@H](N(C)C(=O)c1ccc(OCC3CC3)cc1)C2
Q: CN(C(=O)c1ccc(OCC2CC2)cc1)[C@H]1CCc2cc(CNCC3(C)COC3)ccc2C1
R: CN(C(=O)c1ccc(C2CCCCC2)cc1)[C@H]1CCc2cc(CNCC3CCOCC3)ccc2C1
S: CN(C(=O)c1ccc(OCC2CC2)cc1)[C@H]1CCc2cc(CNCC3CC3)ccc2C1
Arrange the 4 entries by IC50 so the values rise. Please, when replying, give the labels in the order that was requested. Q, P, S, R

a: CC(C)OCCNCc1ccc2c(c1)CC[C@H](N(C)C(=O)c1ccc(OCC3CC3)cc1)C2
b: CCCOc1ccc(C(=O)N(C)[C@H]2CCc3cc(CNCC4CCOCC4)ccc3C2)nc1
c: O=C(N[C@H]1CCc2cc(CN3CCCCCC3)ccc2C1)c1ccc(COC2CCC2)cc1
d: CN(C(=O)c1ccc(OCC2CC2)cn1)[C@H]1CCc2cc(CN3CCCCCC3)ccc2C1
e: CN(C(=O)c1ccc(OCC2CC2)cc1)[C@H]1CCc2cc(CNC3CCC3)ccc2C1
Arrange the 5 entries by IC50 so the values rise. Please, when replying, give the labels in the order that was requested. c, a, b, d, e
(c: 75 nM, a: 149 nM, b: 220 nM, d: 756 nM, e: 1100 nM)

I: O=C(N[C@H]1CCc2cc(CN3C[C@@H]4CC[C@H]3C4)ccc2C1)c1ccc(OCC2CC2)cc1
II: CN(C(=O)c1ccc(OCC2CC2)cc1)[C@H]1CCc2cc(CN3CCCC3)ccc2C1
III: CC1CCN(c2ccc(C(=O)N(C)[C@H]3CCc4cc(CNCC5CCOCC5)ccc4C3)cc2)CC1
IV: COC[C@H](C)NCc1ccc2c(c1)CC[C@H](N(C)C(=O)c1ccc(OCC3CC3)cc1)C2
Arrange the 4 entries by IC50 so the values rise. Please, when replying, give the labels in the order that was requested. I, II, IV, III

1: CN(C(=O)c1ccc(OCC2CC2)cc1)[C@H]1CCc2cc(CNCC3CCOC3)ccc2C1 (stereo partly shown)
2: CC1CCN(Cc2ccc3c(c2)CC[C@H](N(C)C(=O)c2ccc(OCC4CC4)cn2)C3)CC1
From the items above, decide which of 1 and 2 has the lower IC50 reading. State the label of the item chosen. 1

P: CN(C(=O)c1ccc(OCC2CC2)cc1)[C@H]1CCc2cc(CNCCC3CCCO3)ccc2C1 (stereo partly shown)
Q: CCN(CC)Cc1ccc2c(c1)CC[C@H](N(C)C(=O)c1ccc(OCC3CC3)cc1)C2
From the items above, decide which of P and Q has the lower IC50 reading. State the label of the item chosen. P
(P: 140 nM, Q: 668 nM)

P: CN(C(=O)c1ccc(OCC2CC2)cc1)[C@H]1CCc2cc(CNCC3(C)CCOCC3)ccc2C1
Q: COC1CCN(Cc2ccc3c(c2)CC[C@H](N(C)C(=O)c2ccc(OCC4CC4)cc2)C3)CC1
From the items above, decide which of P and Q has the lower IC50 reading. State the label of the item chosen. P

A: CN(C(=O)c1ccc(OCC2CC2)cc1)[C@H]1CCc2cc(CNCC3CCOCC3)ccc2C1
B: CN(C(=O)c1ccc(OCC2CC2)cn1)[C@H]1CCc2cc(C3CCCN3)ccc2C1 (stereo partly shown)
From the items above, decide which of A and B has the lower IC50 reading. State the label of the item chosen. A
